Just for reference, patent US9994581B2 is where these values come from.

Listed next: entries and their corresponding pEC50.
test system: breast cancer cell line MX-1; assay: MX-1 cell line proliferation assay (3-day, Cell Titer Glo); type: cell-based; conditions: Homo sapiens, MX1, MX-1 cells, 72 hours, read-out: Cellular proliferation: EC50
Lab note — pEC50 values are minus log10 of concentrations in M.

Lab note: record pEC50 of CCS(=O)(=O)Nc1ccc2c(c1)-c1cn(C)c(=O)cc1OCCCCc1cc(OC(F)(F)F)ccc1O2 tested on breast cancer cell line MX-1.
8.21

Answer briefly: pEC50 recorded on breast cancer cell line MX-1 for CCS(=O)(=O)c1ccc2c(c1)-c1cn(C)c(=O)cc1OCCCCc1ccc(F)cc1O2
8.10

Specify pEC50 for CCS(=O)(=O)Nc1ccc2c(c1)-c1cn(C)c(=O)cc1OCCN(C(=O)OC(C)(C)C)Cc1cc(Cl)ccc1O2 , system breast cancer cell line MX-1.
7.53

Find pEC50 for CCS(=O)(=O)Nc1ccc2c(c1)-c1cn(C)c(=O)cc1OCCNC(=O)c1cc(Cl)ccc1O2 on breast cancer cell line MX-1 and write it down.
6.59

====

Let's look at some compounds and their measured Ki.
target: UniProtKB O60885; assay: TR-FRET bromodomain binding assay; conditions: His-tagged tandem bromodomain, Alexa647-labeled probe; Ki calculated from IC50s, probe Kd and probe concentration
Report only the number, with the unit nM understood.

Worked set:
| smiles_string | unit_name | observed_measurement |
| --- | --- | --- |
| CCS(=O)(=O)Nc1ccc2c(c1)-c1cn(C)c(=O)cc1OCCOCc1cc(Cl)ccc1O2 | nM | 1.19 |
| CCS(=O)(=O)Nc1ccc2c(c1)-c1cn(C)c(=O)cc1OCCCCc1cc(C(F)(F)F)ccc1O2 | nM | 0.74 |

Tell me measured Ki for CCS(=O)(=O)Nc1ccc2c(c1)-c1cn(C)c(=O)cc1OCCCCc1cc(Cl)ccc1O2 please.
0.93

Name the recorded Ki of the item CCS(=O)(=O)Nc1ccc2c(c1)-c1cn(C)c(=O)cc1OCCN(C1CCC1)Cc1cc(Cl)ccc1O2 in your answer.
2.14

Let me know recorded Ki for CCS(=O)(=O)Nc1ccc2c(c1)-c1nn(C)c(=O)cc1OCCCCc1cc(F)cc(F)c1O2 , thanks.
2.01

Supply Ki value. Item: CCNC(=O)N1CCOc2cc(=O)n(C)cc2-c2cc(NS(=O)(=O)CC)ccc2Oc2ccc(Cl)cc2C1
0.64

Output Ki of CCS(=O)(=O)Nc1ccc2c(c1)-c1cn(C)c(=O)cc1OCCNC(=O)c1cc(Cl)ccc1O2
10.5

Tell us which Ki value is on record for Cn1cc2c(cc1=O)OCCCCc1ccncc1Oc1ccc(N)cc1-2
85.9

====

target: UniProt:O60885; assay: TR-FRET bromodomain binding assay; conditions: His-tagged tandem bromodomain, Alexa647-labeled probe; Ki calculated from IC50s, probe Kd and probe concentration
measure_name: Ki (nM)
Unit nM implied. Number only.

Here are 5 compounds together with their reported answers.
| compound | assay_system | Ki / nM |
| --- | --- | --- |
| CCS(=O)(=O)c1ccc2c(c1)-c1cn(C)c(=O)cc1OCCc1ccccc1O2 [Example A-2] | UniProt:O60885 | 234 |
| CCS(=O)(=O)Nc1ccc2c(c1)-c1cn(C)c(=O)cc1OCCN(S(=O)(=O)NC(C)=O)Cc1cc(Cl)ccc1O2 [Example B-16] | UniProt:O60885 | 1.28 |
| CCS(=O)(=O)c1ccc2c(c1)-c1nn(C)c(=O)cc1OCCCCc1cc(C#N)ccc1O2 [Example A-54] | UniProt:O60885 | 19.7 |
| CCS(=O)(=O)Nc1ccc2c(c1)-c1cn(C)c(=O)cc1OCCN(C(C)=O)Cc1cc(Cl)ccc1O2 [Example B-7] | UniProt:O60885 | 1.61 |
| CCS(=O)(=O)Nc1ccc2c(c1)-c1cn(C)c(=O)cc1OCCCCc1cc(F)c(F)cc1O2 [Example A-48] | UniProt:O60885 | 1.32 |

Could you please provide reported Ki for CCS(=O)(=O)Nc1ccc2c(c1)-c1nn(C)c(=O)cc1OCCCCc1cc(C#N)ccc1O2 [Example A-56] ? Thanks!
3.99

Provide Ki value for the following compound: CCS(=O)(=O)c1ccc2c(c1)-c1nn(C)c(=O)cc1OCCCCc1cc(F)cc(F)c1O2 [Example A-57]
8.44

Note down Ki recorded for CCS(=O)(=O)c1ccc2c(c1)-c1nn(C)c(=O)cc1OCCCCc1cc(Cl)ccc1O2 [Example A-53]
6.32

Answer with the recorded Ki for the compound listed here: Cn1cc2c(cc1=O)OCCCCc1cc(F)ccc1Oc1ccc(NS(C)(=O)=O)cc1-2 [Example A-50]
2.24

Please look at this compound and report its Ki: Cn1cc2c(cc1=O)OCCCCc1cc(F)cc(F)c1Oc1ncc(CS(C)(=O)=O)cc1-2 [Example A-43]
3.82

# return recorded Ki for input Cn1cc2c(cc1=O)OCCCCc1cc(Cl)ccc1Oc1ccc(N)cc1-2 [Example A-8]
25.2

====

Item-by-item account of EC50
tested on: breast cancer cell line MX-1; assay: MX-1 cell line proliferation assay (3-day, Cell Titer Glo); type: cell-based; details: Homo sapiens, MX1, MX-1 cells, 72 hours, read-out: Cellular proliferation: EC50
Write the value in µM as a bare number.

The examples below pair each entry with its known result.
| smiles_string | EC50 / µM |
| --- | --- |
| CCS(=O)(=O)c1ccc2c(c1)-c1nn(C)c(=O)cc1OCCCCc1cc(Cl)ccc1O2 | 0.0475 |
| CCS(=O)(=O)c1ccc2c(c1)-c1cn(C)c(=O)cc1OCC/C=C/c1ccc(Cl)cc1O2 | 0.0164 |

Give recorded EC50. CCS(=O)(=O)c1ccc2c(c1)-c1cn(C)c(=O)cc1OCCCCc1cccc(C)c1O2
0.00116

// Input: CCNC(=O)Nc1ccc2c(c1)-c1cn(C)c(=O)cc1OCCCc1cc(Cl)ccc1O2 . Output its EC50 only.
0.347

Supply reported EC50 belonging to this molecule: Cn1cc2c(cc1=O)OCCCCc1cc(F)cc(F)c1Oc1ccc(S(=O)(=O)C3CC3)cc1-2
0.00571

Look up EC50 of CCS(=O)(=O)Nc1ccc2c(c1)-c1cn(C)c(=O)cc1OCCN(C1CCC1)Cc1cc(Cl)ccc1O2 and report it.
0.00595

Please report EC50 for the following molecule: CCS(=O)(=O)Nc1ccc2c(c1)-c1cn(C)c(=O)cc1OCCCc1cc(Cl)ccc1O2
0.0128

Please report EC50 for the following molecule: CCS(=O)(=O)Nc1ccc2c(c1)-c1cn(C)c(=O)cc1OCCCCc1ccc(Cl)cc1O2
0.00576

Answer with the recorded EC50 for the molecule listed here: Cn1cc2c(cc1=O)OCCCCc1ccc(Cl)cc1Oc1ccc(NS(C)(=O)=O)cc1-2
0.00405

====

Documented pKi across a set of molecules
biological target: UniProtKB O60885; assay: TR-FRET bromodomain binding assay; conditions: His-tagged tandem bromodomain, Alexa647-labeled probe; Ki calculated from IC50s, probe Kd and probe concentration
Note on units: pKi is unitless, being -log10 of a concentration expressed in mol/L.

| molecule | pKi |
| --- | --- |
| Cn1cc2c(cc1=O)OCCCCc1ccc(Cl)cc1Oc1ccc(NS(C)(=O)=O)cc1-2 [Example A-44] | 8.91 |
| CCS(=O)(=O)Nc1ccc2c(c1)-c1cn(C)c(=O)cc1OCC/C=C/c1cc(Cl)ccc1O2 [Example A-18] | 8.39 |
| CCS(=O)(=O)Nc1ccc2c(c1)-c1cn(C)c(=O)cc1OCCCCc1cc(C#N)ccc1O2 [Example A-45] | 8.74 |
| CCS(=O)(=O)c1ccc2c(c1)-c1cn(C)c(=O)cc1OCCCCc1ccncc1O2 [Example A-42] | 9.07 |
| CCS(=O)(=O)Nc1ccc2c(c1)-c1cn(C)c(=O)cc1OCCCc1cc(Cl)ccc1O2 [Example A-5] | 8.89 |

Given CC(=O)Nc1ccc2c(c1)-c1cn(C)c(=O)cc1OCCN(C(C)=O)Cc1cc(Cl)ccc1O2 [Example B-2] , respond with its pKi.
7.81

Supply pKi value. Item: CCS(=O)(=O)c1ccc2c(c1)-c1cn(C)c(=O)cc1OCCCCc1ccccc1O2 [Example A-4]
8.51

Provide one value: measured pKi of Cn1cc2c(cc1=O)OCCCCc1cc(Cl)ccc1Oc1ncc(C(=O)O)cc1-2 [Example A-38]
7.83

====

molecular target: UniProt O60885; assay: TR-FRET bromodomain binding assay; conditions: His-tagged tandem bromodomain, Alexa647-labeled probe; Ki calculated from IC50s, probe Kd and probe concentration
measure_name: Ki (nM)
Give the quantity in nM, number only.

Tell me its Ki given CCS(=O)(=O)Nc1ccc2c(c1)-c1cn(C)c(=O)cc1OC(C)CCCc1cc(Cl)ccc1O2 (centres unmarked) [Example A-17] as the entry.
2.25

Give Ki for CCS(=O)(=O)Nc1ccc2c(c1)-c1cn(C)c(=O)cc1OCCCCc1cccnc1O2 [Example A-46]
32.1

Output Ki of Cn1cc2c(cc1=O)OCCCc1cc(Cl)ccc1Oc1ccc(N)cc1-2 [Example A-7]
25.7

Item CCS(=O)(=O)Nc1cnc2c(c1)-c1cn(C)c(=O)cc1OCCCCc1cc(F)cc(F)c1O2 [Example A-35] : provide Ki
0.68

Assign Ki to the following record: CCS(=O)(=O)Nc1ccc2c(c1)-c1cn(C)c(=O)cc1OCCCc1cc(F)cc(F)c1O2 [Example A-6]
1.51
